Quick list: minimum viability across doses per entry.
test system: UO-31; assay: minimum viability across doses, drug + dasatinib, relative to DMSO (fraction); higher = less growth inhibition; conditions: treatment: drug + dasatinib (fixed dose, not stated); 5 days
Write the number on its own, no unit after it.

Known results for molecules:
molecule="Cc1ccc(-n2nc(C(C)(C)C)cc2NC(=O)Nc2ccc(OCCN3CCOCC3)c3ccccc23)cc1 [BIRB 796 (Doramapimod)] + Cc1nc(Nc2ncc(C(=O)Nc3c(C)cccc3Cl)s2)cc(N2CCN(CCO)CC2)n1 [dasatinib]" numericresult=0.946
molecule="CNC(=O)c1cccc(-c2ccc3c(N4CCOC[C@@H]4C)nc(N4CCOC[C@@H]4C)nc3n2)c1 [AZD2014] + Cc1nc(Nc2ncc(C(=O)Nc3c(C)cccc3Cl)s2)cc(N2CCN(CCO)CC2)n1 [dasatinib]" numericresult=0.00563
molecule="Cc1cc(CN2CCN(c3c(Br)cnc4[nH]c(-c5ccc(N6CCN(C)CC6)cc5)nc34)CC2)no1 + Cc1nc(Nc2ncc(C(=O)Nc3c(C)cccc3Cl)s2)cc(N2CCN(CCO)CC2)n1 [dasatinib]" numericresult=0.0168
molecule="O=C1NC(=O)[C@@H](c2cn3c4c(cccc24)CCC3)[C@@H]1c1c[nH]c2ccccc12 [ARQ 197 (Tivantinib)] + Cc1nc(Nc2ncc(C(=O)Nc3c(C)cccc3Cl)s2)cc(N2CCN(CCO)CC2)n1 [dasatinib]" numericresult=0.03
molecule="NCC(=O)Nc1ccc(-n2nc(C(F)(F)F)cc2-c2ccc3c(ccc4ccccc43)c2)cc1 + Cc1nc(Nc2ncc(C(=O)Nc3c(C)cccc3Cl)s2)cc(N2CCN(CCO)CC2)n1 [dasatinib]" numericresult=0.0147

Measured minimum viability across doses, CCS(=O)(=O)Nc1ccc2c(c1)/C(=C(/Nc1ccc(CN3CCCCC3)cc1)c1ccccc1)C(=O)N2 [Hesperadin] + Cc1nc(Nc2ncc(C(=O)Nc3c(C)cccc3Cl)s2)cc(N2CCN(CCO)CC2)n1 [dasatinib] : 0.0118

Measured minimum viability across doses, CCS(=O)(=O)N1CC(CC#N)(n2cc(-c3ncnc4[nH]ccc34)cn2)C1 + Cc1nc(Nc2ncc(C(=O)Nc3c(C)cccc3Cl)s2)cc(N2CCN(CCO)CC2)n1 [dasatinib] : 0.917

Measured minimum viability across doses, C=CC(=O)Nc1cc2c(Nc3ccc(F)c(Cl)c3)ncnc2cc1OCCCN1CCOCC1 [CI-1033 (Canertinib)] + Cc1nc(Nc2ncc(C(=O)Nc3c(C)cccc3Cl)s2)cc(N2CCN(CCO)CC2)n1 [dasatinib] : 0.00946

Measured minimum viability across doses, FC(F)c1nc2ccccc2n1-c1nc(N2CCOCC2)nc(N2CCOCC2)n1 [ZSTK474] + Cc1nc(Nc2ncc(C(=O)Nc3c(C)cccc3Cl)s2)cc(N2CCN(CCO)CC2)n1 [dasatinib] : 0.00787

---

test system: 786-O; assay: minimum viability across doses, drug alone, relative to DMSO (fraction); higher = less growth inhibition; settings: treatment: drug alone; 5 days
Decide using minimum viability across doses alone. Strictly below 0.2: T. Equal to or above 0.2: F.

Query block: Consider O=C1NC(=O)/C(=C/c2ccc3nccnc3c2)S1 . Does its minimum viability across doses lie strictly below 0.2?
Result block: F

Query block: Consider NC(=O)Nc1sc(-c2ccc(F)cc2)cc1C(N)=O . Does its minimum viability across doses lie strictly below 0.2?
Result block: T

Query block: Consider Cc1[nH]c(/C=C2/C(=O)Nc3ccc(S(=O)(=O)N(C)c4cccc(Cl)c4)cc32)c(C)c1C(=O)N1CCN(C)CC1 . Does its minimum viability across doses lie strictly below 0.2?
Result block: F
